- Test system: Vero E6 infected with SARS-CoV-2
- experimental_protocol: inhibition of SARS-CoV-2 cytopathic effect; higher = more antiviral protection, active = above 15
- study_conditions: 8.33 nM; 48 h
assay_endpoint: inhibition of SARS-CoV-2 cytopathic effect (%)
Give your result in % as a bare value.

Cc1onc(-c2ccccc2Cl)c1C(=O)N[C@@H]1C(=O)N2[C@@H]1SC(C)(C)[C@@H]2C(=O)O :: -1.52
CCO[C@H]1O[C@@H]2O[C@@]3(C)CC[C@H]4[C@H](C)CC[C@@H]([C@H]1C)[C@@]24OO3 :: -2.88
CN1CCN(c2ccc3ccccc3n2)CC1 :: -1.57
C=CC(=O)Nc1cc(Nc2nccc(-c3c[nH]c4ccccc34)n2)c(OC)cc1N(C)CCN(C)C :: -6.83
c1cnc(SCc2cccnc2)nc1 :: 1.66

Consider the compound shown here: COC(=O)C(Cc1ccc(OCCn2c(=O)sc3cc(C(=O)c4ccccc4)ccc32)cc1)C(=O)OC What is its recorded inhibition of SARS-CoV-2 cytopathic effect? 2.25

Reported inhibition of SARS-CoV-2 cytopathic effect for Cc1cc(N2CCOCC2)ccc1Nc1nc(NC2CCCCC2)c2nc[nH]c2n1 : what is it? 1.08

# inhibition of SARS-CoV-2 cytopathic effect lookup, item CCCCCN(CCCOC)C(=O)[C@@H](CCC(=O)O)NC(=O)c1ccc(Cl)c(Cl)c1 [dexloxiglumide] -1.73

Any idea what inhibition of SARS-CoV-2 cytopathic effect was measured for CNC(=O)c1ccccc1Nc1cc(Nc2ccc(N3CCOCC3)cc2OC)ncc1C(F)(F)F ? -1.1

* * *

// values below are reported inhibition of SARS-CoV-2 cytopathic effect
- Tested on: Vero E6 infected with SARS-CoV-2
- experimental_protocol: inhibition of SARS-CoV-2 cytopathic effect; higher = more antiviral protection, active = above 15
- study_conditions: 10000 nM; 48 h
Structures can show the parent of a compound that is named as a salt.

Consider the worked cases shown below.
N=c1ccn2c(n1)O[C@H]1[C@H](O)[C@@H](CO)O[C@H]12 [Cyclocytidine HCl] :: -4.27% (inactive)
N#Cc1c[nH]c2c(C(=O)N3CCN(CCc4ccc(F)cc4)CC3)cccc12 :: 1.69% (inactive)
O=C(NC(Cc1cc(=O)[nH]c2ccccc12)C(=O)O)c1ccc(Cl)cc1 (stereo unspecified) [rebamipide] :: 1.77% (inactive)
COc1ccc(Cc2cnc(N)nc2N)cc1OC :: 0.75% (inactive)
O=c1c(O)c(-c2ccc(O)cc2O)oc2cc(O)cc(O)c12 :: 0.27% (inactive)

// switching to the query compound
// map CS(=O)(=O)CCNCc1ccc(-c2ccc3ncnc(Nc4ccc(OCc5cccc(F)c5)c(Cl)c4)c3c2)o1 to recorded inhibition of SARS-CoV-2 cytopathic effect (system: Vero E6 infected with SARS-CoV-2) -7.81% (inactive)

* * *

- Tested on: Vero E6 infected with SARS-CoV-2
- experimental_protocol: inhibition of SARS-CoV-2 cytopathic effect; higher = more antiviral protection, active = above 15
- study_conditions: 833.33 nM; 48 h
assay_endpoint: inhibition of SARS-CoV-2 cytopathic effect (%)
The response must be a number in % with no trailing unit.

Check out these entries, answers already filled in.
CC(=O)OCC(=O)NCCCOc1cccc(CN2CCCCC2)c1 [roxatidine-acetate] :: 1.86
CN(C)CC[C@@](O)(c1ccccc1)c1ccccc1Cl [clofedanol] :: 1.12
Cc1nccn1CCC(C(N)=O)(c1ccccc1)c1ccccc1 [imidafenacin] :: 4.43
CCCCN1CCC(CCC(=O)c2cc(Cl)c(N)cc2OC)CC1 :: -1.87
CN1C(=O)C[C@@H](C(=O)N[C@@H](Cc2c[nH]cn2)C(=O)N2CCC[C@H]2C(N)=O)NC1=O [taltirelin] :: 3.21

Need inhibition of SARS-CoV-2 cytopathic effect, item CCCCOc1c(C(=O)c2c(F)cc(C)cc2F)c[nH]c2nncc1-2 -0.55

Look at this molecule and give its reported inhibition of SARS-CoV-2 cytopathic effect. CC1CS(=O)(=O)CCN1/N=C/c1ccc([N+](=O)[O-])o1 (centres undefined) [nifurtimox] 2.01

May I ask what inhibition of SARS-CoV-2 cytopathic effect has been recorded for CCCn1c(=O)[nH]c(=O)c2nc[nH]c21 [enprofylline] ? 1.3

Tell me the measured inhibition of SARS-CoV-2 cytopathic effect of CCCCCCOC(=O)NC(=N)c1ccc(NCc2nc3cc(C(=O)N(CCC(=O)OCC)c4ccccn4)ccc3n2C)cc1 [dabigatran-etexilate] , please. 1.44

* * *

- System: Vero E6 infected with SARS-CoV-2
- experimental_protocol: morphology score (similarity to uninfected cells); higher = more like uninfected cells
- study_conditions: 24 h
assay_endpoint: morphology score

Example cases with answers are listed next.
Cc1ccc(C(=O)Nc2ccc(S(=O)(=O)O)c3cc(S(=O)(=O)O)cc(S(=O)(=O)O)c23)cc1NC(=O)c1cccc(NC(=O)Nc2cccc(C(=O)Nc3cc(C(=O)Nc4ccc(S(=O)(=O)O)c5cc(S(=O)(=O)O)cc(S(=O)(=O)O)c45)ccc3C)c2)c1 [suramin] (10 µM) :: 0.13
c1ccc(CNc2ncnc3[nH]cnc23)cc1 [6-benzylaminopurine] (10 µM) :: 0.186

Okay, next one:
For CCCCC(CC)CCC(CC(C)C)OS(=O)(=O)O (stereo not drawn) [sodium-tetradecyl-sulfate] (10 µM) , what is its reported morphology score? 0.0389

* * *

- System: Vero E6 infected with SARS-CoV-2
- experimental_protocol: inhibition of SARS-CoV-2 cytopathic effect; higher = more antiviral protection, active = above 15
- study_conditions: 833.33 nM; 48 h
assay_endpoint: inhibition of SARS-CoV-2 cytopathic effect (%)
Field: numeric (%). Do not append units.

// below: answered compounds
O=c1c2ccccc2[se]n1-c1ccccc1 [ebselen] :: 3.17
CC(C)(Sc1cc(C(C)(C)C)c(O)c(C(C)(C)C)c1)Sc1cc(C(C)(C)C)c(O)c(C(C)(C)C)c1 :: -0.2
COc1cc2/c(=N/c3ccc(Br)cc3F)nc[nH]c2cc1OCC1CCN(C)CC1 :: -6.04
Nc1nc(=O)n([C@H]2C[C@H](O)[C@@H](CO)O2)cc1Cl :: 1.92
CCCCc1oc2ccc(NS(C)(=O)=O)cc2c1C(=O)c1ccc(OCCCN(CCCC)CCCC)cc1 :: 4.57
CC1Sc2c(C(=O)O)c(=O)c3cc(F)c(N4CCNCC4)cc3n21 (stereo not drawn) :: 1.61

# lookup: inhibition of SARS-CoV-2 cytopathic effect of N[C@@H](Cc1c[nH]c2ccc(O)cc12)C(=O)O [5-hydroxytryptophan] 2.16

Look up inhibition of SARS-CoV-2 cytopathic effect for this compound: NC(=O)c1noc([C@H](CCCC2CCCCC2)CC(=O)NO)n1 -1.38

Suppose we examine the compound C[C@H]1O[C@@H](n2cc(F)c(=O)[nH]c2=O)[C@H](O)[C@@H]1O ; what inhibition of SARS-CoV-2 cytopathic effect value has been reported? -0.27

Given COc1ccccc1OCC(O)COC(N)=O (stereo not drawn) , state its recorded inhibition of SARS-CoV-2 cytopathic effect. 2.32

Quick one: inhibition of SARS-CoV-2 cytopathic effect of CCNC(=O)Nc1ccc(-c2nc3c(c(N4CCOC[C@@H]4C)n2)CCN(C2COC2)C3)cc1 ? 0.29

Can you look up the measured inhibition of SARS-CoV-2 cytopathic effect of CCN(CC)C(=O)[C@@]1(c2ccccc2)C[C@H]1CN for me? -0.26

Returns the measured inhibition of SARS-CoV-2 cytopathic effect for the input compound. Input: CC[C@H]1OC(=O)[C@H](C)[C@@H](O[C@H]2C[C@@](C)(OC)[C@@H](O)[C@H](C)O2)[C@H](C)[C@@H](O[C@@H]2O[C@H](C)C[C@H](N(C)C)[C@H]2O)[C@](C)(O)C[C@@H](C)C(=O)[C@H](C)[C@@H](O)[C@]1(C)O 2.65

Quick check: inhibition of SARS-CoV-2 cytopathic effect of NS(=O)(=O)Cc1noc2ccccc12 [zonisamide] ? 0.73

Fill in the blank: the reported inhibition of SARS-CoV-2 cytopathic effect of C[C@]12CCC(=O)C=C1[C@@H]1C[C@@H]1[C@H]1[C@@H]3[C@@H]4C[C@@H]4[C@@]4(CCC(=O)O4)[C@@]3(C)CC[C@@H]12 is ____. 0.94

* * *

- System: Vero E6 infected with SARS-CoV-2
- experimental_protocol: inhibition of SARS-CoV-2 cytopathic effect; higher = more antiviral protection, active = above 15
- study_conditions: 1 nM; 48 h
assay_endpoint: inhibition of SARS-CoV-2 cytopathic effect (%)
Numeric only. Scale: %

# example entries with known answers
CCCCc1ccc(O)cc1O :: -2.6
Nc1ccn([C@@H]2O[C@@](CO)(CCl)[C@@H](O)[C@H]2F)c(=O)n1 :: 3.35
Cc1ccc(S(=O)(=O)N2CCC[C@H]2c2ccc(F)cc2)cc1 :: 0.31
Cc1ccccc1NC(=O)Nc1ccc(CC(=O)N(C)[C@@H](CC(C)C)C(=O)NCC[C@H](NC(=O)[C@@H]2CCCN2S(=O)(=O)c2cc(Cl)cc(Cl)c2)C(=O)O)cc1 :: -1.88
Cc1nc(-c2cccnc2)sc1C(=O)Nc1ccccc1-c1cn2c(CN3CCOCC3)csc2n1 :: -1.3

# value lookup — system Vero E6 infected with SARS-CoV-2, readout inhibition of SARS-CoV-2 cytopathic effect, item Nc1ccccc1S(N)(=O)=O [2-aminobenzenesulfonamide] 0.91

Query the reported inhibition of SARS-CoV-2 cytopathic effect for Vero E6 infected with SARS-CoV-2; item: CCCCCCN(CCCCCC)C(=O)Cc1c(-c2ccc(Cl)cc2)[nH]c2ccc(Cl)cc12 1.54

Lab note: need inhibition of SARS-CoV-2 cytopathic effect with Vero E6 infected with SARS-CoV-2 for entry O=C(c1ccc(Nc2nccc(-c3cc4ccccc4s3)n2)cc1)N1CCC(N2CCCC2)CC1 , please look it up. 2.48

# query: inhibition of SARS-CoV-2 cytopathic effect | item Cc1cc2c(s1)Nc1ccccc1N=C2N1CCN(C)CC1 | system: Vero E6 infected with SARS-CoV-2 -1.67

Request: inhibition of SARS-CoV-2 cytopathic effect, test system Vero E6 infected with SARS-CoV-2, entry CC1(C)CCC(C)(C)c2cc(C(=O)Nc3ccc(C(=O)O)cc3)ccc21 0.12

What value of inhibition of SARS-CoV-2 cytopathic effect on Vero E6 infected with SARS-CoV-2 does CC(C)(C)c1ccc(CN(Cc2cccc(OCC(=O)O)c2)S(=O)(=O)c2cccnc2)cc1 have? -1.15

Give Vero E6 infected with SARS-CoV-2 inhibition of SARS-CoV-2 cytopathic effect for O=[N+]([O-])c1cn2c(n1)OC[C@@H](OCc1ccc(-c3ccc(OC(F)(F)F)cc3)nc1)C2 1.33

Give Vero E6 infected with SARS-CoV-2 inhibition of SARS-CoV-2 cytopathic effect for O=C(c1ccc2nccnc2c1)N1CCCCC1 -0.24

API: value(readout= inhibition of SARS-CoV-2 cytopathic effect, system= Vero E6 infected with SARS-CoV-2, query= OC(c1ccccc1)(c1ccccc1)C1CCNCC1 ) -0.3

Form: Entry = CNC(=N)NC(=O)Nc1c(C)cccc1C | System = Vero E6 infected with SARS-CoV-2 | inhibition of SARS-CoV-2 cytopathic effect = ____ 0.93

Item: CN(C)c1nc(N(C)C)nc(N(C)C)n1 Test system: Vero E6 infected with SARS-CoV-2 Read-out: inhibition of SARS-CoV-2 cytopathic effect Value: ? 2.31
